- target_desc: Metabotropic glutamate receptor 8 (Rattus norvegicus) (UniProt P70579)
- Sequence (P70579 whole entry, looked up): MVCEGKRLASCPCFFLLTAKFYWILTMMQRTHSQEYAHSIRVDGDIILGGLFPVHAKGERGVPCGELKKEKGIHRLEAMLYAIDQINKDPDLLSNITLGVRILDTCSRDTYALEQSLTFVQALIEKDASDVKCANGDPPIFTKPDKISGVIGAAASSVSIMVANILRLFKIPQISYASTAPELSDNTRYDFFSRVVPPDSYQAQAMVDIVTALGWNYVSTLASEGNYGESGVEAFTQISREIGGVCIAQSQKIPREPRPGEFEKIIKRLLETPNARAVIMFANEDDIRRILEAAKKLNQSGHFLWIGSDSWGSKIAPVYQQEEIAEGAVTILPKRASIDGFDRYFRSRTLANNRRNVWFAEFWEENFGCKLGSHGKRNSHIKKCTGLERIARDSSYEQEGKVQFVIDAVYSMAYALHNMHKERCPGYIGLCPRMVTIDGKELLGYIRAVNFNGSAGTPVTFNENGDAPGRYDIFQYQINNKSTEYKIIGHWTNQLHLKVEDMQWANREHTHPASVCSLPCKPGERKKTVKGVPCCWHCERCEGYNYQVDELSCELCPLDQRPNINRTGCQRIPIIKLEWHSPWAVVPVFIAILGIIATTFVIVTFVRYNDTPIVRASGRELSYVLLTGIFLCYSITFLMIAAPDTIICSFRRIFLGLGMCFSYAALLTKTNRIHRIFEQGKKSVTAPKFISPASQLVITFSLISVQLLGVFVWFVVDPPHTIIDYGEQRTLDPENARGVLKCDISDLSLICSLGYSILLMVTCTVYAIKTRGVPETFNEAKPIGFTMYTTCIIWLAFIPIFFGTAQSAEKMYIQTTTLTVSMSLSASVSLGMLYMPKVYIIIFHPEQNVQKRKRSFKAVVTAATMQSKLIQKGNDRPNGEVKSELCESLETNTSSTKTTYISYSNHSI
- method: mGluR8 Gi/Go-coupled signaling modulation – cell-based, rat, thallium flux, HTS, primary screen (AID 488969)
- assay_context: HEK293 rat mGluR8, GIRK thallium flux, FluoZin2; at 10 µM; stronger effect = higher value; submaximal glutamate (EC20) added with thallium
In all, about 110,000 compounds were measured (“z-score”: median about -0.1, highest 2% from about 2 on). The entries come from a sample that favours the highest values as a whole.
Outcome: 1 for z-score of at least 0.2; 0 for anything lower.

O=C(CN1CCCC1)Nc1c2c(nc3ccccc13)N(Cc1ccccc1)CC2	1

Q: Determine whether measured z-score meets or exceeds 0.2 for Cc1nc2ccsc2c(=O)n1-c1ccc(Cl)cc1
A: 0

Q: Determine whether measured z-score meets or exceeds 0.2 for O=C1COc2ccc(C(=O)c3ccccc3C(=O)NCc3ccco3)cc2N1
A: 0

Q: Determine whether measured z-score meets or exceeds 0.2 for CC(C)Cc1nc2oc3c(NCCCN4CCOCC4)ncnc3c2c2c1CCC2
A: 0

Q: Determine whether measured z-score meets or exceeds 0.2 for CCN(CC)S(=O)(=O)c1cccc(C(=O)NC(C(=O)NC2=NCCS2)C(C)C)c1 (stereo not drawn)
A: 0

Q: Determine whether measured z-score meets or exceeds 0.2 for CN(C)c1cccc(C(=O)OCC(=O)NCC2CCCO2)c1 (stereo not drawn)
A: 0

Q: Determine whether measured z-score meets or exceeds 0.2 for CN(CCc1ccccn1)S(=O)(=O)c1ccccc1F
A: 0

Q: Determine whether measured z-score meets or exceeds 0.2 for CC(C)Sc1nc(C(F)(F)F)cc(=O)n1-c1ccccc1
A: 1

Q: Determine whether measured z-score meets or exceeds 0.2 for COc1ccc(S(=O)(=O)N2CCN(C(=O)NCc3ccccc3)CC2)cc1
A: 0

----------
- target_desc: Metabotropic glutamate receptor 8 (Rattus norvegicus)
- method: mGluR8 Gi/Go-coupled signaling modulation – cell-based, rat, thallium flux, HTS, primary screen (AID 488969)
- assay_context: HEK293 rat mGluR8, GIRK (G protein-gated inwardly rectifying potassium channel) thallium flux, FluoZin2; at 10 µM; stronger effect = higher value; submaximal glutamate (EC20) added with thallium
Whole data set: some 110,000 compounds, median “z-score” near -0.1, cut for the highest 2% near 2. Shown is part of a subset that was picked to be rich in the highest values. Residues, ends and D or L forms follow the SMILES beside them. *: point of attachment. OBn = c1ccc(CO*)cc1
Overview of reported z-score across a group of molecules:
Output spec: single numeric token, no unit.

Worked examples follow.
COc1ccccc1-c1nc2cc3ccccc3cc2nc1-c1ccccc1OC	-0.377
CCOC(=O)Nc1sc2c(c1C(=O)OCC)CCC2	0.418
CC(C)NCCCOc1ccc(C(C)(C)c2ccccc2)cc1	0.192
O=C(Cn1ccc2ccccc2c1=O)N1CCN(Cc2ccc3c(c2)OCO3)CC1	0.477

Q: I would be grateful if you could share the reported z-score for C=CCn1c(-c2cccs2)nc2ccccc21 .
A: 3.14

Q: I would be grateful if you could share the reported z-score for CCC(C)C(N)C(=O)NC(CCC(=O)OCc1ccccc1)C(N)=O (stereo unspecified) (H-Ile-Glu(OBn)-NH2; configuration not given here) .
A: 0.0296

Q: I would be grateful if you could share the reported z-score for CCn1ncc(/C=C/C(=O)Nc2c(C)nn(CC)c2C)c1C .
A: -0.306

Q: I would be grateful if you could share the reported z-score for CCOc1ccc(CNC(=O)C2CCCN(S(C)(=O)=O)C2)cc1OC (stereo unspecified) .
A: 0.258

Q: I would be grateful if you could share the reported z-score for O=C(c1ccc(N2CCN(CCO)CC2)nc1)N1CCOCC1 .
A: 0.0375

Q: I would be grateful if you could share the reported z-score for Cc1cc(NC(=O)/C=C/c2ccccc2Cl)n(-c2nc3ccccc3[nH]2)n1 .
A: 0.0437

Q: I would be grateful if you could share the reported z-score for Cn1nc(Oc2nc(N3CCOCC3)nc(N3CCOCC3)n2)ccc1=O .
A: 0.165

Q: I would be grateful if you could share the reported z-score for Cc1cccc(Oc2ccccc2NC(=O)c2cnccn2)c1 .
A: -0.109

Q: I would be grateful if you could share the reported z-score for COc1ccccc1N1CCN(S(=O)(=O)c2cccc3nsnc23)CC1 .
A: -0.393

Q: I would be grateful if you could share the reported z-score for COC(=O)c1c(NC(=O)COC(=O)[C@@H](NS(=O)(=O)c2ccccc2)C(C)C)sc2c1CCC2 .
A: 0.129

Q: I would be grateful if you could share the reported z-score for Cc1onc(-c2ccccc2)c1C(=O)Nc1ccc(N2CCOCC2)cc1 .
A: -0.074

Q: I would be grateful if you could share the reported z-score for c1csc(Cn2c(-c3cccs3)nc3ccccc32)c1 .
A: -1.65

Q: I would be grateful if you could share the reported z-score for CCOC(=O)c1c(NC=O)sc2c1CCC2 .
A: -0.85

Q: I would be grateful if you could share the reported z-score for C=CCn1c(=N)n(CC(=O)c2ccc(Br)s2)c2ccccc21 .
A: -1.22

Q: I would be grateful if you could share the reported z-score for O=C(Nc1cccc2ccccc12)N1CCN(c2ccccc2)CC1 .
A: -0.177

Q: I would be grateful if you could share the reported z-score for O=C1CN=C(Nc2ccc(Cl)cc2)N1c1ccccc1 .
A: -0.0445

Q: I would be grateful if you could share the reported z-score for CCOC(=O)c1c(NC(=O)OC)sc2c1CCC2 .
A: 0.00121

Q: I would be grateful if you could share the reported z-score for COC(=O)c1c(NC(=O)COC(=O)c2ccc(C)s2)sc2c1CCCCC2 .
A: 0.122

Q: I would be grateful if you could share the reported z-score for CC1=CC(c2ccccc2)NC(=S)N1 (stereo unspecified) .
A: -0.113

Q: I would be grateful if you could share the reported z-score for CCOc1ccc(-n2nnnc2-c2nc3ccccc3s2)cc1 .
A: -0.319

Q: I would be grateful if you could share the reported z-score for Cc1cc(C)cc(C(=O)n2cnnc2N)c1 .
A: -0.0618
